The reported numbers originate from ChEMBL document CHEMBL1124113.

# Tested on: Melanin-concentrating hormone receptor (Synbranchus marmoratus)
# Measurement notes: Melanin concentrating hormone(MCH) activity, causes melanosome aggregation within integumental fish melanocytes and lightening of the skin; d = Inactive at 10e-6 M
Bridge positions count the residues as written; N and C are the ends. Peptide text beside a SMILES is read from it.
Measurement type: EC50

Data request: Respond only with EC50 recorded for CC(C)[C@H](NC(=O)[C@H](CCC(=O)O)NC(=O)[C@H](Cc1c[nH]c2ccccc12)NC(=O)[C@@H]1CSSC[C@H](N)C(=O)NCC(=O)N[C@@H](CCCN=C(N)N)C(=O)N[C@@H](C(C)C)C(=O)N[C@@H](Cc2ccc(O)cc2)C(=O)N[C@@H](CCCN=C(N)N)C(=O)N2CCC[C@H]2C(=O)N1)C(=O)O (H-CGRVYRPCWEV-OH; disulfide 1-8)
Data returned: Not Active

Data request: Assign EC50 to the following record: CSCC[C@H](NC(=O)[C@H](C)NC(=O)[C@H](CCCN=C(N)N)NC(=O)[C@H](CCSC)NC(=O)[C@@H](NC(=O)[C@@H](N)CC(=O)O)[C@@H](C)O)C(=O)N[C@H](C(=O)N[C@H]1CSSC[C@@H](C(=O)N[C@@H](Cc2c[nH]c3ccccc23)C(=O)N[C@@H](CCC(=O)O)C(=O)N[C@H](C(=O)O)C(C)C)NC(=O)[C@@H]2CCCN2C(=O)[C@H](CCCN=C(N)N)NC(=O)[C@H](Cc2ccc(O)cc2)NC(=O)[C@H](C(C)C)NC(=O)[C@H](CCCN=C(N)N)NC1=O)C(C)C (H-DTMRAMVCRVYRPCWEV-OH; disulfide 8-14)
Data returned: Not Active

====

# Tested on: Melanin-concentrating hormone receptor (Synbranchus marmoratus)
# Measurement notes: Melanin concentrating hormone(MCH) activity, causes melanosome aggregation within integumental fish melanocytes and lightening of the skin; d = Inactive at 10e-6 M
Bridge positions count the residues as written; N and C are the ends. Peptide text beside a SMILES is read from it.
Measurement type: EC50

Data request: Could you please provide reported EC50 for CSCC[C@H](NC(=O)[C@H](C)N)C(=O)N[C@H]1CSSC[C@@H](C(=O)N[C@@H](Cc2c[nH]c3ccccc23)C(=O)N[C@@H](CCC(=O)O)C(=O)N[C@H](C(=O)O)C(C)C)NC(=O)[C@@H]2CCCN2C(=O)[C@H](CCCN=C(N)N)NC(=O)[C@H](Cc2ccc(O)cc2)NC(=O)[C@H](C(C)C)NC(=O)[C@H](CCCN=C(N)N)NC(=O)CNC1=O (H-AMCGRVYRPCWEV-OH; disulfide 3-10) ? Thanks!
Data returned: Not Active

Data request: Read the entry CSCC[C@H](NC(=O)[C@H](C)N)C(=O)N[C@H](C(=O)NCC(=O)N[C@@H](CCCN=C(N)N)C(=O)N[C@H]1CSSC[C@@H](C(=O)N[C@@H](Cc2c[nH]c3ccccc23)C(=O)N[C@@H](CCC(=O)O)C(=O)N[C@H](C(=O)O)C(C)C)NC(=O)[C@@H]2CCCN2C(=O)[C@H](CCCN=C(N)N)NC(=O)[C@H](Cc2ccc(O)cc2)NC1=O)C(C)C (H-AMVGRCYRPCWEV-OH; disulfide 6-10) and write its reported EC50.
Data returned: Not Active

Data request: Fill in reported EC50 for this entry: CSCC[C@H](NC(=O)[C@H](C)NC(=O)[C@H](CCCN=C(N)N)NC(=O)[C@H](CCSC)NC(=O)[C@@H](NC(=O)[C@@H](N)CC(=O)O)[C@@H](C)O)C(=O)N[C@H]1CSSC[C@@H](C(=O)N[C@@H](Cc2c[nH]c3ccccc23)C(=O)N[C@@H](CCC(=O)O)C(=O)N[C@H](C(=O)O)C(C)C)NC(=O)[C@@H]2CCCN2C(=O)[C@H](CCCN=C(N)N)NC(=O)[C@H](Cc2ccc(O)cc2)NC(=O)[C@H](C(C)C)NC(=O)[C@H](CCCN=C(N)N)NC(=O)CNC1=O (H-DTMRAMCGRVYRPCWEV-OH; disulfide 7-14)
Data returned: Not Active
